target: human ether-à-go-go-related gene (hERG) potassium channel (human, UniProt Q12809); test: primary screen, population patch clamp on CHO cells stably expressing hERG; higher = less effect of the substance;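 further: peak tail current of the secondary pulse compared with the same well before compound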
Sequence (Q12809 whole entry, looked up): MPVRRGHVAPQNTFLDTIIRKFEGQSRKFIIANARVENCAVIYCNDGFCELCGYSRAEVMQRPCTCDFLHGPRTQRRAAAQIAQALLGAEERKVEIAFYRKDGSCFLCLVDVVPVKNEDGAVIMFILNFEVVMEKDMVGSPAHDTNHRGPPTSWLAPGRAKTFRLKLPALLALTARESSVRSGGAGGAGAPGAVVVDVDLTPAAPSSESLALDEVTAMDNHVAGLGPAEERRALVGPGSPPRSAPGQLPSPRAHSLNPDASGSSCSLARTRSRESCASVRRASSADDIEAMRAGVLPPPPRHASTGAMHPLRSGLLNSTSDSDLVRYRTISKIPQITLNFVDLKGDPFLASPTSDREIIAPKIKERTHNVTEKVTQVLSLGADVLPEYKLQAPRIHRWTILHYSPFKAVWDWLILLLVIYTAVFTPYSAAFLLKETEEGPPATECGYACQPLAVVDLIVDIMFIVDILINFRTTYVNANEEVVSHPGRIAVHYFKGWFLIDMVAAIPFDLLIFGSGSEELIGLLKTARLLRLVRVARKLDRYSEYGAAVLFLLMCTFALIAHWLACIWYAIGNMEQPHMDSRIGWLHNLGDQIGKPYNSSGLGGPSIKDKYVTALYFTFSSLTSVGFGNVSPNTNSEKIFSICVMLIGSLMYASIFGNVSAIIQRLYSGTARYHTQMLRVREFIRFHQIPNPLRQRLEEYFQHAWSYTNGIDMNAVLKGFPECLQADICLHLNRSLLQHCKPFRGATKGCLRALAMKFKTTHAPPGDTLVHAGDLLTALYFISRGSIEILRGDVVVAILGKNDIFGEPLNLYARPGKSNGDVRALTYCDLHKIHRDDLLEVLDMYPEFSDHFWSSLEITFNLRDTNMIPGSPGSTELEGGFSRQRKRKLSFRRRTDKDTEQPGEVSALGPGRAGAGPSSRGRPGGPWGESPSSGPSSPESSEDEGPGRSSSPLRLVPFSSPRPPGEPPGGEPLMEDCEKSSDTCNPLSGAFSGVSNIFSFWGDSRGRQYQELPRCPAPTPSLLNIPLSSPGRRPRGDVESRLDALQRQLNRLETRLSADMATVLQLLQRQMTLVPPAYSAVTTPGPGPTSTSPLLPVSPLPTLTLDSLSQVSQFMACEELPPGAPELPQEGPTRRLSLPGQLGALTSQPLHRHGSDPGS
Hit rate of the full screen: of about 310,000 compounds, about 14,000 (4.5%) showed an effect of 50% or more. The effect is printed as a negative number. Only a selection was taken, and strong results are over-represented in it overall.
endpointName: hERG current change (%, negative = inhibition) at 10uM (%)
One number for each entry, in %.

Examples from the recorded data:
- Cc1ccc(C)c(NS(=O)(=O)c2ccc(-c3cnc(C4CC4)o3)cc2)c1: 4.27
- O=C(CCNC(=O)c1ccc([N+](=O)[O-])cc1)NCCc1ccccc1: -27.8
- CCOC(=O)C1CCCN(C(=O)c2cccc(S(=O)(=O)N3CCOCC3)c2)C1 (stereo not shown): 15.6
- COc1ccccc1-c1cc(C(=O)N/N=C\c2cnn(C)c2C)c2ccccc2n1: -3.85
- COc1ccccc1N(CC(O)CN1CCCCC1)S(=O)(=O)c1ccc(C)cc1 (stereo not shown): -29.7
- CCC(C)N=Cc1c(Nc2ccccc2)nc2c(C)cccn2c1=O (stereo not shown): 17.6
- CC1CCc2sc(C(=O)N3CCC(C(N)=O)CC3)cc2C1 (stereo not shown): 5.36
- Cc1[nH]n(-c2ccc([N+](=O)[O-])cc2)c(=O)c1C=NCCc1c[nH]c2ccccc12: 13.2
- O=S(=O)(NC1CCCCC1)c1cccc(-c2nnc(-c3ccccc3)o2)c1: -36.4
- Cc1nnc2ccc(-c3cccc(NC(=O)Cc4cccs4)c3)nn12: -25.9

I need hERG current change (%, negative = inhibition) at 10uM for every entry listed below, if you could help.
1. COc1cc(/C=C2\OC(=O)c3c(OC)cccc32)ccc1O
2. O=S(=O)(c1ccccc1)N(CC(O)CN1CCOCC1)c1ccccc1 (stereo not shown)
3. Cc1ccc(C2(C)NC(=O)N(CC(=O)NNC(=O)c3ccoc3C)C2=O)cc1 (stereo not shown)
4. CC(/C=N/Nc1nc2ccccc2[nH]1)=C\c1ccccc1
5. COc1ccc(CC(=O)Nc2cccc(-c3ccc4nnc(C)n4n3)c2)cc1OC
6. COc1ccc(-c2[nH]n(-c3ccc([N+](=O)[O-])cc3)c(=O)c2C=NCCN2CCNCC2)cc1
7. CC12CCC(C(=O)Nc3cccc(Cl)c3Cl)([C@H](Br)C1=O)C2(C)C (stereo partly shown)

A:
[15.6, 18.6, 26.6, -41.8, -0.118, -4.9, -39.6]

I need hERG current change (%, negative = inhibition) at 10uM for every entry listed below, if you could help.
1. O=c1c(C=NCC2CCCO2)c(-c2ccccc2)[nH]n1-c1ccc([N+](=O)[O-])cc1 (stereo not shown)
2. CCn1c(=O)c(C(=O)NNC(=O)c2ccccc2Cl)c(O)c2ccccc21
3. COc1ccc(OC)c(/C=C/C(=O)OCC(=O)Nc2nnc(-c3ccccc3)o2)c1
4. COc1cccc(N2CCN(S(=O)(=O)c3ccc4c(c3)CC(C)N4C(=O)C3CC3)CC2)c1 (stereo not shown)
5. C=CCNC(=S)N1CCN(CCN=Cc2c(C)[nH]n(-c3ccc([N+](=O)[O-])cc3)c2=O)CC1

A:
7.58
7.09
-3.14
17.8
-72.1
